Biological target: T1, human CLDN6, endogenously expressed on cancer cell lines (human, UniProt P56747 1-220)
T1 construct: also called Endogenous CLDN6+; CLDN6 on ARK2, OVCA429, UMUC4 cells
T1 sequence: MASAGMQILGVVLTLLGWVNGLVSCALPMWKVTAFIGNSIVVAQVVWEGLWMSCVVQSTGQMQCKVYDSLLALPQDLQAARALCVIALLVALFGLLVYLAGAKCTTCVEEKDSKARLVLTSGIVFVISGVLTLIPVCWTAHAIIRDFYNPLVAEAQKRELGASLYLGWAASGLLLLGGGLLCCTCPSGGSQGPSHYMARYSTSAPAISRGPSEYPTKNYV
Assay: FACS, ARK2 cells, 1.5 ug Ab
readout: FACS signal
Lab note: record the figure alone, no unit after it.

Would you please look over these solved cases?
AB3-5 (antibody, V domains shown, Humanized; also called humanized AB 3-5) VH: EVQLLESGGGLVQPGGSMRLSCAASGFTFSNYWMNWVRQAPGKGLEWVAQIRLKSDNYATHYADSVKGRFTISRDDSKNTVYLQMNSLRAEDTGVYYCNDGPPSGYWGQGTLLTVSS VL: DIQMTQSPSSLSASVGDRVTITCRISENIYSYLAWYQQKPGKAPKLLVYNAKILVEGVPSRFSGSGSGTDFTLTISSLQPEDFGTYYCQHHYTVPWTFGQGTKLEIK :: 2910
AB4-4 (antibody, V domains shown, Humanized; also called humanized AB 4-4) VH: QVQLVQSGAEVKKPGASVKMSCKASGYTFTSYTMHWIRQAPGQGLEWIGYINPSSTYTHYAQKFQGRATLTADTSTSTAYMELSSLRSEDTAVYYCSRGELGGFAYWGQGTLVTVSS VL: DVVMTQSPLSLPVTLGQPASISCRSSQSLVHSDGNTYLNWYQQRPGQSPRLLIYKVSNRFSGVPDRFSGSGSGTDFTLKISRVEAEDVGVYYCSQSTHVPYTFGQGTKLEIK :: 1400

Attention now shifts to the item below.
*Q* Any idea what its FACS signal is? The binder is AB4-3 (antibody, V domains shown, Humanized; also called humanized AB 4-3) VH: QVQLVQSGAEVKKPGASVKVSCKASGYTFTSYTMHWVRQAPGQGLEWMGYINPSSTYTHYAQKFQGRVTMTADTSTSTVYMELSSLRSEDTAVYYCSRGELGGFAYWGQGTLVTVSS VL: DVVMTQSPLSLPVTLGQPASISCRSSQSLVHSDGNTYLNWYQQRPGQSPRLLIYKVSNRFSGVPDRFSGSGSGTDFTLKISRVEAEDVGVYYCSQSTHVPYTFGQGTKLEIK
*A* 1520
